testedOn: Cannabinoid-1 receptor (CB1R) (Rattus norvegicus)
Construct: The tissue obtained from the brain of SD rats was homogenized; from tissue; host or cells: brain of SD rats (membrane pellet of the homogenate)
Sequence (P20272 whole entry): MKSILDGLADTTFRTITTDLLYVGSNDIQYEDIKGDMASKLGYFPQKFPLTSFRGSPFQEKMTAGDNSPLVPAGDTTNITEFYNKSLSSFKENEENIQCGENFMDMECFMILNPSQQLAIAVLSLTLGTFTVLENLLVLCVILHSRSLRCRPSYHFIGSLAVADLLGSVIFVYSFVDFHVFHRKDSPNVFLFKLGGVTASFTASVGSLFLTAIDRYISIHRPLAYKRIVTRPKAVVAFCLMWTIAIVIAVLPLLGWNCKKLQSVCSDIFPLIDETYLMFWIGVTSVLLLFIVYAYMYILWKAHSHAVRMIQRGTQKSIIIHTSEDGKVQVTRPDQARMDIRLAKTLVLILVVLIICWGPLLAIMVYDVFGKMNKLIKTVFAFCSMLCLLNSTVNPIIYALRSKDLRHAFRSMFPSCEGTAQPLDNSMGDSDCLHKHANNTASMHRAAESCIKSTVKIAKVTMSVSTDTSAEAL
experimentSummary: Cannabinoid-1 receptor (CB1R) binding affinity assay ([3H]CP-55940, rat CB-1 receptor binding protocol)
measurementParameters: brain tissue of SD rats, [3H]CP-55940, 30° C. 60 min; read-out: IC50
pIC50: −log10 of the molar value.
measuredEndpoint: pIC50

>>> endpointresult("Cc1c(-c2nnc(C3(C(C)(C)O)CC3)o2)nn(-c2ccc(Cl)cc2Cl)c1-c1ccc(Cl)cc1")
7.46

P = Cc1c(-c2nnc(C3CCCCCC3)s2)nn(-c2ccc(Cl)cc2Cl)c1-c1ccc(Cl)cc1
Q = Cc1c(-c2n[nH]c(C3CCCCCC3)n2)nn(-c2ccc(Cl)cc2Cl)c1-c1ccc(Cl)cc1
R = CCC(C)(C)c1nnc(-c2nn(-c3ccc(Cl)cc3Cl)c(-c3ccccc3)c2C)s1
S = COc1ccc(-c2c(C)c(-c3nnc(C4(c5ccc(OC)cc5)CC4)o3)nn2-c2ccc(Cl)cc2Cl)cc1
IN: I would appreciate it if you could sort these 4 compounds by pIC50, starting from the smallest number. Please, when replying, give the labels in the order that was requested.
OUT: Q, R, P, S
(Q: 6.20, R: 6.95, P: 7.44, S: 7.75)

A = CCOC(C)(C)c1nnc(-c2nn(-c3ccc(Cl)cc3Cl)c(-c3ccc(Cl)cc3)c2C)s1
B = CC(C)(C)c1nnc(-c2nn(-c3ccc(Cl)cc3Cl)c(-c3ccc(Br)cc3)c2C(C)(C)O)o1
C = CCC(C)c1nnc(-c2nn(-c3ccc(Cl)cc3Cl)c(-c3ccccc3)c2C)s1 (stereo not shown)
IN: Please list the entries, largest pIC50 first. To answer, arrange all of the labels according to the requested order.
OUT: B, A, C
(B: 7.77, A: 7.27, C: 6.65)

P = CCc1c(-c2nnc(C3(c4ccc(C)cc4)CC3)s2)nn(-c2ccc(Cl)cc2Cl)c1-c1ccc(Br)cc1
Q = CCc1c(-c2nnc(C3CC4CCC3C4)s2)nn(-c2ccc(Cl)cc2Cl)c1-c1ccc(Br)cc1 (stereo not shown)
R = CC(C)(C)c1nnc(-c2nn(-c3ccc(Cl)cc3Cl)c(-c3ccc(Cl)cc3)c2CN2C(=O)CCC2=O)o1
S = CCc1c(-c2nnc(C3CCCCCC3)s2)nn(-c2ccc(Cl)cc2Cl)c1-c1ccc(Cl)cc1
IN: // sort entries: pIC50, high to low Provide the labels, sequenced as the question asks.
OUT: S, P, Q, R
(S: 8.03, P: 7.73, Q: 7.27, R: 6.54)

a = CC(C)(C)c1nnc(-c2nn(-c3ccc(Cl)cc3Cl)c(-c3ccc(Cl)cc3)c2COc2ccccn2)o1
b = CCC(C)(C)c1nnc(-c2nn(-c3ccc(Cl)cc3Cl)c(-c3ccc(Cl)cc3)c2Cl)s1
IN: Looking at recorded values for pIC50, does a or b come in lower? // return label of chosen record
OUT: b
(b: 6.90, a: 7.61)

###

testedOn: Cannabinoid-1 receptor (CB1R) (Rattus norvegicus)
Construct: The tissue obtained from the brain of SD rats was homogenized; from tissue; host or cells: brain of SD rats (membrane pellet of the homogenate)
experimentSummary: Cannabinoid-1 receptor (CB1R) binding affinity assay ([3H]CP-55940, rat CB-1 receptor binding protocol)
measurementParameters: brain tissue of SD rats, [3H]CP-55940, 30° C. 60 min; read-out: IC50
measuredEndpoint: IC50 (nM)

Recorded IC50, per entry:
>>> endpointresult("CCC(C)c1nnc(-c2nn(-c3ccc(Cl)cc3Cl)c(-c3ccc(Br)cc3)c2C)s1 (centres unmarked)")
10.7
>>> endpointresult("CCc1c(-c2nnc(C3(c4ccccc4)CCCC3)s2)nn(-c2ccc(Cl)cc2Cl)c1-c1ccc(Br)cc1")
32.8
>>> endpointresult("Cc1c(-c2nnc(C3(c4ccc(Cl)cc4)CC3)s2)nn(-c2ccc(Cl)cc2Cl)c1-c1ccc(Cl)cc1")
13.9
>>> endpointresult("CC(C)(C)c1nnc(-c2nn(-c3ccc(Cl)cc3Cl)c(-c3ccc(Br)cc3)c2C=O)s1")
10.1
>>> endpointresult("CC(C)(C)c1nnc(-c2nn(-c3ccc(Cl)cc3Cl)c(-c3ccc(Cl)cc3)c2C(F)F)o1")
36.1

1 = CCc1c(-c2nnc(C3(c4ccccc4F)CC3)o2)nn(-c2ccc(Cl)cc2Cl)c1-c1ccc(Cl)cc1
2 = CC(=O)OCc1c(-c2nnc(C(C)(C)C)o2)nn(-c2ccc(Cl)cc2Cl)c1-c1ccc(Br)cc1
3 = Cc1c(-c2ncc(C3CCCCC3)o2)nn(-c2ccc(Cl)cc2Cl)c1-c1ccc(Cl)cc1
IN: Order the records, beginning with the lowest IC50 and ending with the highest. Submit the labels in the order that the ranking request calls for.
OUT: 1, 2, 3
